# assay-target: M-phase inducer phosphatase 2 (Homo sapiens, UniProt P30305)
# assay: Inhibitory concentration of compound against mutant WT of Cdc25B phosphatase was determined
readout-name: pIC50
Schema: pIC50 number; meaning minus log10 of the concentration expressed in molar units.

**Q:** Item O=C1CC(=O)C(=O)C(c2c[nH]c3ccccc23)C1=O has what recorded pIC50?
**A:** 4.74

====

# assay-target: M-phase inducer phosphatase 2 (Homo sapiens)
# Sequence (P30305 whole entry): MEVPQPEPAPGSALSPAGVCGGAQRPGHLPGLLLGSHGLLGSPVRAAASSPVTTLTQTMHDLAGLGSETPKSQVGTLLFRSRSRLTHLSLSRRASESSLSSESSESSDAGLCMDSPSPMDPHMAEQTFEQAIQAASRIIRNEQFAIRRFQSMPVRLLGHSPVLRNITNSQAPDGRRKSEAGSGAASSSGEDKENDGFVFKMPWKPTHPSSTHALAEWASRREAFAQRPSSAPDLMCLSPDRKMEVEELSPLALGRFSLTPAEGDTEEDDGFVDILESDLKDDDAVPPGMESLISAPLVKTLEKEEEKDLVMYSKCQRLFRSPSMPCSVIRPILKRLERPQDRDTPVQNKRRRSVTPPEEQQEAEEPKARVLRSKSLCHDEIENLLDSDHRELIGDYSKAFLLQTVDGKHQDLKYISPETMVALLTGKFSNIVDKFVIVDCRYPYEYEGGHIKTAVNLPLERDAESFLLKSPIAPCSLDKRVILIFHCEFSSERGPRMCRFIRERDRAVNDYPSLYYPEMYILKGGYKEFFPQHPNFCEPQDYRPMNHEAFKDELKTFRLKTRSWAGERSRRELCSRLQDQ
# assay: Inhibitory concentration of compound against mutant E478Q of Cell division cycle 25B was determined
readout-name: IC50 (µM)
The response must be a number in µM with no trailing unit.

**Q:** Item CC(C)=CCc1cccc2c(C3C(=O)C(=O)CC(=O)C3=O)c[nH]c12 has what recorded IC50?
**A:** 6.5

====

# assay-target: UniProtKB P30305
# assay: Inhibitory concentration of compound against mutant F475A of Cell division cycle 25B was determined
readout-name: IC50

**Q:** Item CC(C)=CCc1cccc2c(C3C(=O)C(=O)CC(=O)C3=O)c[nH]c12 has what recorded IC50?
**A:** > 50 µM
